# Run Description: MRT (0 to infinity) in Wistar rat brain at 15 mg/kg, po by HPLC analysis
# Type: ADME, organism-based
Value Kind: MRT inf (h)
Report only the number, with the unit h understood.

Sample "CCCCC1=NC2(CCCC2)C(=O)N1Cc1ccc2c(ccn2-c2ccccc2-c2nnn[nH]2)c1" — what was its MRT inf?
11.6

* * *

# Run Description: AUC (0 to infinity) in Wistar rat lung at 30 mg/kg, po by HPLC analysis
# Format: ADME, organism-based
# Design: dose 30 mg/kg, route oral, time infinity
Value Kind: AUC(0-inf) (ng·h/mL)
Report only the number, with the unit ng·h/mL understood.

Sample "CCCCC1=NC2(CCCC2)C(=O)N1Cc1ccc2c(ccn2-c2ccccc2-c2nnn[nH]2)c1" — what was its AUC(0-inf)?
2410
